# test: growth inhibition of RCMB18 medulloblastoma cells, cell-based, cisplatin and BGB IC40 combos (AID 1671462);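 also: cells exposed to compound for four days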
# measurement setup: at 0.5 µM, stronger effect = higher value
Answer N if inhibition is under -10%, and Y if it is -10% or more.

> print(dat)
                                    compound  category
 1  C[C@@H](CN1CC(=O)NC(=O)C1)N1CC(=O)NC(=O)C1         N
 2                      O=c1cc[nH]c(=O)[nH]1         N
 3  CC1(C(=O)O)CCC2(C)CCC3(C)C(=CC(=O)C4C5(C)CCC(OC(=O)CCC(=O)O)C(C)(C)C5CCC43C)C2C1 (stereo unspecified)         N
 4  CNC1CCCN(c2c(F)cc3c(=O)c(C(=O)O)cn(C4CC4)c3c2OC)C1 (stereo unspecified)         N
 5  CN(N=O)C(=O)NC1C(O)OC(CO)C(O)C1O (stereo unspecified)         Y
 6  CN1CCN(c2c(F)cc3c(=O)c(C(=O)O)cn(CCF)c3c2F)CC1         Y
 7               O=C(CCCCCCC(=O)Nc1ccccc1)NO         Y
 8  CN1CCN(c2c(F)cc3c(=O)c(C(=O)O)cn4c3c2OCN4C)CC1         N
 9  Nc1ncn([C@H]2C[C@H](O)[C@@H](CO)O2)c(=O)n1         Y
10         CCOC(=O)Nc1ccc(NCc2ccc(F)cc2)nc1N         N
11  N=c1ccn2c(n1)O[C@H]1[C@H](O)[C@@H](CO)O[C@H]12         N
12  O=c1[nH]c(=O)n([C@H]2C[C@H](O)[C@@H](CO)O2)cc1C(F)(F)F         N
13                  Nc1ccc2cc3ccc(N)cc3nc2c1         Y
14  COC1C(OC(N)=O)C(O)C(Oc2ccc3c(O)c(NC(=O)c4ccc(O)c(CC=C(C)C)c4)c(=O)oc3c2C)OC1(C)C (stereo unspecified)         N
15  CN1C[C@@H]2C[C@H]1CN2c1cc2c(cc1F)c(=O)c(C(=O)O)cn2C1CC1         N
16        Cc1ccc2nc(N)[nH]c(=O)c2c1Sc1ccncc1         N
